System: MS2 coat protein
Experiment: apparent KD of MS2 coat protein; higher = weaker reporter binding
Conditions: Eterna round: R107; input ligand: theophylline 2 mM
Kind request: treat 60 nM as inclusive, so apparent KD of MS2 coat protein at 60 nM or higher is 1, anything lower is 0.

## Input Record UCGGGCAGAGCGGCCGCCACUGUUUGGCAUGCGGAUGAAGGAACAUGAGGAUCACCCAUGUAGAUUAGGACCGGGCUGGCGGAGA [jjhemullin] ; criterion: apparent KD of MS2 coat protein no lower than 60 nM. Met?
## Output 0

## Input Record AAUACCGGAUCGGCCGCCACUGGUUGGCCCUGUGUACAUGAGGAUCACCCAUGUCCAUCCCAAACCAGGACCGGGAUCUUUGUGC [Ededmate] ; criterion: apparent KD of MS2 coat protein no lower than 60 nM. Met?
## Output 0

## Input Record CGGACAUGAGGAUCACCCAUGUACACUGAAGGAGCGUCGAGAACGACAGGUAGGUCGCAGGUUGAGGAAGGUGAUGCUCAAGAAG [Exclusion Arginine A GF4] ; criterion: apparent KD of MS2 coat protein no lower than 60 nM. Met?
## Output 0

## Input Record UUGGGUUUGUGAAGGAGCGGGAAAGUUUUAUAGUGGAUCCUAACAUGAGGAUCACCCAUGUCCCAGGUAGGUCGCGCGGGUUUGG [12.R] ; criterion: apparent KD of MS2 coat protein no lower than 60 nM. Met?
## Output 1

## Input Record UGGUACAUGAGGAUCACCCAUGUUCCAGAUACCAGUGUCCCGGUGCACCCUUGGCAGCUGGUGGUACAUGAGGAUCACCCAUGUG [Exclusion Theophylline A GF13] ; criterion: apparent KD of MS2 coat protein no lower than 60 nM. Met?
## Output 1

## Input Record AGGACGGUCGGAAGGAGCGGUACAUGAGGAUCACCCAUGUACUCCUGGGCAUCCGUAGUGUGCCAGGUAGGUCGCCGAUUGCGGG [XArg-B8] ; criterion: apparent KD of MS2 coat protein no lower than 60 nM. Met?
## Output 0

* * *

Tested on: MS2 coat protein
Assay: apparent KD of MS2 coat protein; designed switch direction (-1 OFF switch, 1 ON switch): -1; higher = weaker reporter binding
Conditions: input ligand: none
Kind request: treat 30 nM as inclusive, so apparent KD of MS2 coat protein at 30 nM or higher is Yes, anything lower is No.

## Input Record ACAUGAGGAUCACCCAUGUCGAGUACAUGAGGAUCACCCAUGUAGGAUAUGGUUCGCUUUGCGUGCUAGAAGGAUAUGUGUUGC [salish99_ExNG3_r04_509] (Eterna round: R96, puzzle: Exclusion NG 3) ; criterion: apparent KD of MS2 coat protein no lower than 30 nM. Met?
## Output Yes

## Input Record UAUUAGCAAGCGAGAUCCCACAUGAGGAUCACCCAUGUGCUCGUCUUAUAAAGUACUGUGACGAAAGUCACGGUACU [Mat - Sensor, turn-off var - Eli Mod - D7] (Eterna round: R97, puzzle: Sensor, turn-off variant 1) ; criterion: apparent KD of MS2 coat protein no lower than 30 nM. Met?
## Output No

## Input Record UCGCUCCGUGUAGGAUAUCGCCGUACGAUGCGGCGAGAAGGACAUGAGGAUCACCCAUGUAUGUUAUUAUCACGCGUGGCGCAA [Design 62] (Eterna round: R96, puzzle: Exclusion NG 1) ; criterion: apparent KD of MS2 coat protein no lower than 30 nM. Met?
## Output No

## Input Record UAUGGUUAAGUCAGGAUAUGCACGAAGAGAACAAAGCAGAAGGGACAUGAGGAUCACCCAUGUAAAGUCGUGUU [Ex4 #76] (Eterna round: R97, puzzle: Brourd's mod of Exclusion 4) ; criterion: apparent KD of MS2 coat protein no lower than 30 nM. Met?
## Output Yes

## Input Record UUUUACAAGCUUAGAUCCUACAUGAGGAUCACCCAUGUGGUCCGGUGACGUGAGUCACCGGACUAAGCUCGUCUUGU [JL TOV1 3.71] (Eterna round: R97, puzzle: Sensor, turn-off variant 1) ; criterion: apparent KD of MS2 coat protein no lower than 30 nM. Met?
## Output Yes

* * *

Please go through the items and note down their apparent KD of MS2 coat protein.
Tested on: MS2 coat protein
Test: apparent KD of MS2 coat protein; designed switch direction (-1 OFF switch, 1 ON switch): -1; higher = weaker reporter binding
Settings: input ligand: none
Give just the numeric value; nM need not be written.

## Input Could you tell me which apparent KD of MS2 coat protein is on file for GUCUGAGCAGGAUAUACAUGAGGAUCACCCAUGUUGGUUCAGCGACGAUAGUCGCAAUGUAGAAGGGCUCAGAC [E3/9-D1] (Eterna round: R97, puzzle: Exclusion 3) ?
## Output 258

## Input Could you tell me which apparent KD of MS2 coat protein is on file for CCCGAGCAUGUAGGAUAUGGCUCGGUGUCUGGGCCAGAAGGACAUGAGGAUCACCCAUGUCUGCGGGUGUGGAUAUGAUUUGGG [-32, -31 kcal A 20%] (Eterna round: R96, puzzle: Exclusion NG 1) ?
## Output 32.1

## Input Could you tell me which apparent KD of MS2 coat protein is on file for GAUCAACAUGAGGAUCACCCAUGUCAGGAUAUCUAUCAAGUGAGCCUAUCACAAUUUGGGAGAAGGGACCUAAU [Eternabot (L2) Solution 51] (Eterna round: R97, puzzle: Exclusion 1) ?
## Output 35.8

## Input Could you tell me which apparent KD of MS2 coat protein is on file for AUAAAUCAUGUAGGAUAUGCGUGGCAAAGCUAUGCAGAAGGACAUGAGGAUCACCCAUGUGCUUCCGUCUGGGAACAGACGGUA [Mat - Exclusion NG 1 - Mod of JL - D34] (Eterna round: R96, puzzle: Exclusion NG 1) ?
## Output 84.9

## Input Could you tell me which apparent KD of MS2 coat protein is on file for UGUUGUUACGUAGGAUAUGAGGAUCACCCAUAGAAGGAUAUCGAAAGAGAAGGUCUGAGGAUUACCCAGAAGGACGGGUUAACA [pwkr exNG2 2xF5 2xFMN.4] (Eterna round: R96, puzzle: Exclusion NG 2) ?
## Output 139

## Input Could you tell me which apparent KD of MS2 coat protein is on file for UUAUUGUGAGGAUAUCAGGUGUGCUAGCGUACUGGUACAUCUGAGAAGGCACAUGAGGAUCACCCAUGUUUCUU [JL-ex4-3.22 Brourd mod] (Eterna round: R96, puzzle: Exclusion 4) ?
## Output 25

## Input Could you tell me which apparent KD of MS2 coat protein is on file for CCGGAAAGGAAGGAUAUGCUAGACGAGAGUCUAGCAGAAGGUCCUACAUGAGGAUCACCCAUGUGUCCUACCGG [Mat - Exclusion 6 - Eli Mod - D38] (Eterna round: R97, puzzle: Exclusion 6) ?
## Output 79.8

## Input Could you tell me which apparent KD of MS2 coat protein is on file for GCGGAGUGAGGAUAUAGAACUUAAGGUACCAAUUAGGUACCCUAGAAGGCACAUGAGGAUCACCCAUGUACCGC [Eli x4 4.01] (Eterna round: R97, puzzle: Exclusion 4) ?
## Output 28.6

## Input Could you tell me which apparent KD of MS2 coat protein is on file for ACAUGUCAUUGAGGAUAUUGCACACAUGAGGAUCACCCAUGUAUACGGAUGCUCUUCCGUGAGUUCGAGAAGGCGAUGUACAUU [Ex NG2 #90] (Eterna round: R96, puzzle: Exclusion NG 2) ?
## Output 60.7

* * *

Test system: MS2 coat protein
Assay: apparent KD of MS2 coat protein; designed switch direction (-1 OFF switch, 1 ON switch): -1; higher = weaker reporter binding
Conditions: input ligand: none
Please go through the items and note down their apparent KD of MS2 coat protein.
Give just the numeric value; nM need not be written.

## Input Could you tell me which apparent KD of MS2 coat protein is on file for UAAUUAAUUAAUUAAUAAUACAUGAGGAUCACCCAUGUAGAUCCUACAUACAAGCUUUGUAGCUCGUCUUAUAAUUA [Stov1/3-A1] (Eterna round: R97, puzzle: Sensor, turn-off variant 1) ?
## Output 337

## Input Could you tell me which apparent KD of MS2 coat protein is on file for CUAGCGAUUGUAGGAUAUCGGACUGUUUCAGUCUGAGAAGGACAUGAGGAUCACCCAUGUGGAGGAUCGUGAGAUCCACGCUAG [JL ENG1 3.81] (Eterna round: R96, puzzle: Exclusion NG 1) ?
## Output 34.5

## Input Could you tell me which apparent KD of MS2 coat protein is on file for AAGAAACAUGAGGAUCACCCAUGUGAGGAUAUGAGCAAGAAAAGAAAAGAAAGAAGAAUCAGAAGGCACAAAGG [salish99-ex1_r3_050] (Eterna round: R96, puzzle: Exclusion 1) ?
## Output 37.4
